These entries and their values trace back to patent US20230374132A1.

Listed next: entries and their corresponding koff.
# TARGET_UNDER_TEST: T1, human CD3E&G complex (Sino Biological Inc., CT041-H0305H) (human, UniProt P07766 23-126; P09693 23-116)
# T1 construct: bought heterodimer; also called human CD3E&G antigen
# EXPERIMENTAL_DETAILS: BLI, antibody on sensor
Numeric answer only, unit s⁻¹ assumed.

BINDER	VALUE_UNIT	koff
hzsp34.86 (antibody, human IgG1, lambda, L234A L235A, V domains shown, CDR mutant of hzsp34.24; IgG1 L234A L235A, lambda) VH: EVQLVESGGGLVQPGGSLKLSCAASGFTFNTYAMNWVRQASGKGLEWVGRIRSKYNNYATYYADSVKDRFTISRDDSKSTLYLQMNSLKTEDTAVYYCARAGNFGQSYVSWFAYWGQGTTVTVSS VL: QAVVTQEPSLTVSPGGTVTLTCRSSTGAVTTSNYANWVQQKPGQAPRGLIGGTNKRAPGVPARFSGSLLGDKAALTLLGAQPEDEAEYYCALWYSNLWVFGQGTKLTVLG	s⁻¹	0.00144
hzsp34.93 (antibody, human IgG1, lambda, L234A L235A, V domains shown, CDR mutant of hzsp34.24; IgG1 L234A L235A, lambda) VH: EVQLVESGGGLVQPGGSLKLSCAASGFTFNTYAMNWVRQASGKGLEWVGRIRSKYNNYATYYADSVKDRFTISRDDSKSTLYLQMNSLKTEDTAVYYCARHGNFGQSAVSWFAYWGQGTTVTVSS VL: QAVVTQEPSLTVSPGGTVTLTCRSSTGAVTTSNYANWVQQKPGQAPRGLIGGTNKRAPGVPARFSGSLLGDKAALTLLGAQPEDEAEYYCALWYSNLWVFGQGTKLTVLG	s⁻¹	0.000836
hzsp34.115 (antibody, human IgG1, lambda, L234A L235A, V domains shown, CDR mutant of hzsp34.24; IgG1 L234A L235A, lambda) VH: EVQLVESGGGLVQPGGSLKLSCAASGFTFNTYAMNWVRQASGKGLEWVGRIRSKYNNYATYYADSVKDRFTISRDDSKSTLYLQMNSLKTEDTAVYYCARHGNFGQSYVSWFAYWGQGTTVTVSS VL: QAVVTQEPSLTVSPGGTVTLTCRSSTGAVTTSNYANWVQQKPGQAPRGLIGGTNSRAPGVPARFSGSLLGDKAALTLLGAQPEDEAEYYCALWYSNLWVFGQGTKLTVLG	s⁻¹	0.00184
hzsp34.109 (antibody, human IgG1, lambda, L234A L235A, V domains shown, CDR mutant of hzsp34.24; IgG1 L234A L235A, lambda) VH: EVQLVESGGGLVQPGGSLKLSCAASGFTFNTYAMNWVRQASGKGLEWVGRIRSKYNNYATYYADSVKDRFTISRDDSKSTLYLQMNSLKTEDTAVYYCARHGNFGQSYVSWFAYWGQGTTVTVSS VL: QAVVTQEPSLTVSPGGTVTLTCRSSTGAVTTSNYANWVQQKPGQAPRGLIGGTNKRAPGVPARFSGSLLGDKAALTLLGAQPEDEAEYYCALWYRNLWVFGQGTKLTVLG	s⁻¹	0.0021
hzsp34.102 (antibody, human IgG1, lambda, L234A L235A, V domains shown, CDR mutant of hzsp34.24; IgG1 L234A L235A, lambda) VH: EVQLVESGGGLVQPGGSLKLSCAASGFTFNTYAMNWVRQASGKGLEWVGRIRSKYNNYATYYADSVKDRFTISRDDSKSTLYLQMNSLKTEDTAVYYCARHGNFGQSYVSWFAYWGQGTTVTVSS VL: QAVVTQEPSLTVSPGGTVTLTCGSSTGAVTTSNYANWVQQKPGQAPRGLIGGTNKRAPGVPARFSGSLLGDKAALTLLGAQPEDEAEYYCALWYSNLWVFGQGTKLTVLG	s⁻¹	0.0019

In: Name the recorded koff for hzsp34.84 (antibody, human IgG1, lambda, L234A L235A, V domains shown, CDR mutant of hzsp34.24; IgG1 L234A L235A, lambda) VH: EVQLVESGGGLVQPGGSLKLSCAASGFTFNTYAMNWVRQASGKGLEWVGRIRSKYGNYATYYADSVKDRFTISRDDSKSTLYLQMNSLKTEDTAVYYCARHGNFGQSYVSWFAYWGQGTTVTVSS VL: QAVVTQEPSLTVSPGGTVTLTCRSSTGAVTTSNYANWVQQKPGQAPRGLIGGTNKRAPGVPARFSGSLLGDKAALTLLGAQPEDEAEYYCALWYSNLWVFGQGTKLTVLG .
Out: 0.00114
